Conditions: basic group
Records here are stratified by pKa; strata: bottom range = under 2, center range = from 2 up to 8, top range = 8 and over

SMILES_REPR | LABEL_CLASS
[O-]c1ccncc1Br | top range
Nc1cc(N)c2cccnc2c1O | center range
Cc1ccc(C(=O)O)s1 | bottom range
CN(C)CCCCCCCNC(=O)/C=N/[O-] | top range
Cc1ccccc1NC1CCCCC1 | center range
Cc1cccc(N)c1-c1c(C)cccc1[NH3+] | center range
Cc1ccc(C(=O)S)cc1 | bottom range

Band of NCC[n+]1ccc2ccccc2c1 ?
center range

----------
Details: acidic group
# pKa listing for each entry below
Keep the answer to the number alone.

COMPOUND | NUMERIC_VALUE
O=C(O)[C@H]1CCCC[C@@H]1O | 4.68
c1ccc(-c2nc3ccccc3[nH]2)cc1 | 11.9

In one line, give reported pKa of the entry O=C(O)[C@@H]1CCC[C@H](O)C1 .
4.6

In one line, give reported pKa of the entry CS(=O)(=O)c1ccc(S(=O)(=O)NCc2ccccc2)cc1 .
10.2

In one line, give reported pKa of the entry CC(C)c1cccc(=O)c(O)c1Br .
6.68

In one line, give reported pKa of the entry C[N+](C)(C)NC(=O)c1cccc([N+](=O)[O-])c1 .
3.16

In one line, give reported pKa of the entry [NH3+][C@@H](Cn1cccn1)C(=O)O .
2.2

In one line, give reported pKa of the entry CCCC/C=[N+](\[O-])O .
4.5

In one line, give reported pKa of the entry NC(=O)CS(N)(=O)=O .
9.7

In one line, give reported pKa of the entry Cc1nnc([N-]S(=O)(=O)c2ccc(O)cc2)s1 .
8.81

In one line, give reported pKa of the entry N#CCCNC(CC(N)=O)C(=O)O (configuration not stated) .
6.46

In one line, give reported pKa of the entry Cc1nnnn1CC(=O)O .
2.16

In one line, give reported pKa of the entry O=C(O)c1ccccc1-c1ccccc1 .
3.46

In one line, give reported pKa of the entry [NH3+]CCS .
8.4

In one line, give reported pKa of the entry C[N+](C)(C)c1ccc(O)cc1 .
8.25

In one line, give reported pKa of the entry C[C@@]12CC(=O)N[C@]1(CCC(=O)[O-])C(=O)NC2=O .
8.1

In one line, give reported pKa of the entry COc1ccc([C@H]2C[C@@H]2C(=O)O)cc1 .
4.62

In one line, give reported pKa of the entry CCCCCCCCCCCC(=O)O .
4.89

In one line, give reported pKa of the entry COc1ccccc1/C=C/C=N\O .
11.3

In one line, give reported pKa of the entry O=[N+]([O-])CCc1ccccc1 .
8.55
